Origin of measurements: PubChem BioAssay

# protocol text: small molecules captured by biotinylated probe aFGF2 – biochemical, small-molecule microarray, fluorescence 635/667, stem cell growth factor project, primary screen (AID 1067);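 also: measures binding of biotinylated aFGF2 protein to printed compounds on slides; z-score merges feature fluorescence and signal-to-noise across triplicate slides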
# setup conditions: higher = more signal
Note that class boundaries on composite z-score are group 1: < -0.1; group 2: ≥ -0.1 and < 0.03; group 3: ≥ 0.03

Query: Record `COCCCNC(=O)[C@@]1(Cc2ccccc2CN=[N+]=[N-])N=C(c2ccc(OCCCO)cc2)O[C@H]1c1ccccc1CN=[N+]=[N-]` — which class?
Response: group 3

Query: Record `C=C(CCCC)/C(=C/C[C@H](OC(C)=O)c1ccc(OCCO)cc1)c1cnc2ccccc2c1` — which class?
Response: group 1

Query: Record [N-]=[N+]=Nc1ccccc1C[C@]1(C(=O)NCC(O)CO)N=C(c2ccc(OCCCO)cc2)O[C@H]1c1ccccc1 (stereo partly specified) — which class?
Response: group 2

Query: Record `COc1ccc([Si](C)(C)[C@@H]2[C@@H](CCn3cc([C@H](O)c4ccccc4)nn3)O[C@]3(C(=O)N(Cc4cccc(N5CCC5=O)c4)c4ccccc43)[C@H]2C)cc1` — which class?
Response: group 1

Query: Record `[N-]=[N+]=Nc1ccccc1C[C@]1(C(=O)NCc2ccccc2)N=C(c2ccc(OCCCO)cc2)O[C@H]1c1ccccc1N=[N+]=[N-]` — which class?
Response: group 3

Query: Record `NC(=O)[C@@H]1[C@H]2C(=O)O[C@H](c3ccccc3)[C@H](c3ccccc3)N2[C@H](c2ccc(O)cc2)[C@@]12C(=O)Nc1ccc(C#CC3=CCCCC3)cc12` — which class?
Response: group 1

Query: Record O=C1OCCC=C[C@H]2OC34C=CCN(c5ccc(Cl)cc5)C(=O)[C@H]3N(CCCO)C(=O)[C@@H]4C12 (stereo partly specified) — which class?
Response: group 1

Query: Record `CCCC[C@H]1C[C@@H]1[C@@H]1N(P(=O)(c2ccccc2)c2ccccc2)C[C@@](O)(c2ccccc2)CC12CC2` — which class?
Response: group 3

Query: Record `CO[C@H]1O[C@H](CO)[C@@H](OC(=O)Nc2ccccc2-c2ccccc2)[C@H](OC(=O)Nc2ccccc2-c2ccccc2)[C@@H]1OC(=O)Nc1ccccc1-c1ccccc1` — which class?
Response: group 1

Query: Record COc1ccc(NN2C(C(O)c3ccc(N(C)C)cc3)C=CC3C(=O)N(C4CCCCC4)C(=O)C32)cc1 (stereo unspecified) — which class?
Response: group 3

Query: Record `C=C[C@H](C)[C@@H](OC(=O)Nc1ccc(SC)cc1)c1ccc(O)c2ccccc12` — which class?
Response: group 2

Query: Record `[N-]=[N+]=NCc1ccccc1[C@H]1OC(c2ccc(OCCCO)cc2)=N[C@@]1(Cc1ccccc1)C(=O)N1CCCCC1` — which class?
Response: group 2

Query: Record `C=C(CCCC)/C(=C/C[C@H](OC(C)=O)c1ccccc1OCCO)c1cnc2ccccc2c1` — which class?
Response: group 1

Query: Record CC(c1ccccc1)C(O)C1C=CC2C(=O)N(C)C(=O)C2N1NC(=O)OC(C)(C)C (stereo unspecified) — which class?
Response: group 3

###

Exercise: for every item that follows, state its recorded z-score.
# protocol text: basal CRE-LacZ reporter activity in PC12 – cell-based, unstimulated, primary screen (AID 1145)
# setup conditions: no forskolin, luminescence, 4.5 h, higher = more signal, called active from +8 up or from −8 down
Could you respond with only the numeric value?

Query: Find the recorded z-score belonging to `CCOC(=O)C[C@H]1[C@H](OC(=O)c2ccc(-c3ccccc3)cc2)[C@@H](NC(=O)c2ccccc2)c2cc(OCCCO)ccc2N1C(=O)c1ccc2ccccc2n1` and report it.
Response: -0.882

Query: Find the recorded z-score belonging to `Cc1ccc(S[C@]2(C(=O)NCC(C)C)CC(=O)N(Cc3cc(C(F)(F)F)cc(C(F)(F)F)c3)[C@@H]2c2ccc(CO)cc2)cc1` and report it.
Response: -0.0781

Query: Find the recorded z-score belonging to `CCCCCCc1nc(-c2ccc(-c3ccc(Cl)c(Cl)c3)o2)c(C)c2c1[Si](C(C)C)(C(C)C)OC2` and report it.
Response: 0.236

Query: Find the recorded z-score belonging to O=C1NC(=O)C2C1C=CC(C(O)c1ccc(I)cc1)N2Nc1ccccn1 (centres undefined) and report it.
Response: 0.636

Query: Find the recorded z-score belonging to COc1ccc(NN2C(C(O)c3ccc(N(C)C)cc3)C=CC3C(=O)N(C4CCCCC4)C(=O)C32)cc1 (centres undefined) and report it.
Response: -0.583

Query: Find the recorded z-score belonging to `C=C(CCCC)C(=O)CC[C@H](OC(=O)c1cccnc1)c1ccc(OCCO)cc1` and report it.
Response: 13.3

Query: Find the recorded z-score belonging to `O=C1O[C@@H](c2ccccc2)[C@@H](c2ccccc2)N2[C@@H](c3ccccc3OCCO)[C@]3(C(=O)Nc4ccc(C#CC5(O)CCCCCC5)cc43)[C@@H](C(=O)N3CCN(c4ncccn4)CC3)[C@H]12` and report it.
Response: 0.209

Query: Find the recorded z-score belonging to `COc1ccc([Si](C)(C)[C@@H]2[C@@H](CCn3cc(CCO)nn3)O[C@]3(C(=O)N(Cc4cccc(N5C(=O)c6cccc7cccc5c67)c4)c4ccccc43)[C@H]2C)cc1` and report it.
Response: 2.93

Query: Find the recorded z-score belonging to CC(C)=CCCC(C)=CC(O)C1C=CC2C(=O)N(c3ccccc3)C(=O)C2N1Nc1ccc(C(C)C)cc1 (centres undefined) and report it.
Response: 0.44

Query: Find the recorded z-score belonging to O=C1C2C=CC(C(O)c3ccc(F)cc3)N(Nc3ccc([N+](=O)[O-])cc3)C2C(=O)N1c1ccccc1 (centres undefined) and report it.
Response: -0.415

Query: Find the recorded z-score belonging to `COC(=O)[C@@]1(Cc2ccc(OC)cc2)[C@H]2c3cc(C(=O)N4CCCC4)n(CCCNc4ncc(C(F)(F)F)cc4Cl)c3C[C@H]2CN1C(=O)c1ccccc1` and report it.
Response: 0.769

Query: Find the recorded z-score belonging to CC(=O)n1cc(C(O)C2C=CC3C(=O)NC(=O)C3N2Nc2ccccn2)c2ccccc21 (centres undefined) and report it.
Response: -0.14

Query: Find the recorded z-score belonging to `COCCOC(=O)N1C(=O)[C@@]2(c3ccccc31)[C@H](C(=O)N1CCc3cc(OC)c(OC)cc3C1)[C@H]1C(=O)O[C@H](c3ccccc3)[C@H](c3ccccc3)N1[C@@H]2c1ccc(O)cc1` and report it.
Response: -0.0515

Query: Find the recorded z-score belonging to O=C1C2C=CC(C(O)c3cc(C(F)(F)F)cc(C(F)(F)F)c3)N(Nc3ccccc3)C2C(=O)N1c1ccccc1 (centres undefined) and report it.
Response: -0.326

Query: Find the recorded z-score belonging to `C=CCN1C(=O)[C@]2(Cc3ccccc3)N=C(c3ccc(OCCCO)cc3)O[C@@H]2c2ccccc21` and report it.
Response: 2.97

Query: Find the recorded z-score belonging to `COC(=O)c1c2oc(c1C(=O)OC)C(=O)NC1(CCCCC1)c1cn(nn1)C[C@H](Cc1ccccc1)NC(=O)N[C@H](CO)CC2` and report it.
Response: 3.49

Query: Find the recorded z-score belonging to `COc1ccccc1CN1C(=O)c2ccccc2[C@@]2(Cc3ccccc3N(CCCN(C)C)C2=O)[C@@H]1c1ccc(CO)cc1` and report it.
Response: -0.0243

Query: Find the recorded z-score belonging to `C=C(/C(=C/C[C@H](OC(=O)c1ccncc1)c1ccc(OCCO)cc1)c1cc(C(=O)OC)ccc1OC)C(C)C` and report it.
Response: 3.9

Query: Find the recorded z-score belonging to `COCCOC(=O)N1C(=O)[C@@]2(c3cc(C#CC4(O)CCCCCC4)ccc31)[C@H](C(=O)Nc1nc3ccccc3s1)[C@H]1C(=O)O[C@H](c3ccccc3)[C@H](c3ccccc3)N1[C@@H]2c1ccccc1OCCO` and report it.
Response: 0.212

Query: Find the recorded z-score belonging to `NCCCCCNC(=O)[C@H]1C[C@H]2C(=O)N3CCC[C@H]3C(=O)N2[C@H]1c1ccc(O)cc1` and report it.
Response: 0.285

Query: Find the recorded z-score belonging to `C[N+](C)(C)CCCC[C@@H]1NC(=O)[C@@H]2C[C@H](C(=O)NCCCCCN)[C@H](c3ccc(O)cc3)N2C1=O` and report it.
Response: 0.143

Query: Find the recorded z-score belonging to O=C1C2C=CC(C(O)c3c(F)cccc3Cl)N(Nc3ccccc3F)C2C(=O)N1c1ccccc1 (centres undefined) and report it.
Response: 0.243

Query: Find the recorded z-score belonging to `CC(=CC1CCCCC1)[C@@H](NC(=O)c1cccnc1)c1ccc(-c2ccccc2)cc1` and report it.
Response: 1.34

Query: Find the recorded z-score belonging to O=C1OCC=C[C@H]2OC34C=CCN(CCN5CCOCC5)C(=O)[C@H]3N(CCO)C(=O)[C@@H]4[C@@H]12 (some centres undefined) and report it.
Response: 0.459

Query: Find the recorded z-score belonging to `CC[C@@H]1C=C(C(=O)O)[C@H](c2cccc3ccccc23)N1S(=O)(=O)c1ccc(C)cc1` and report it.
Response: -0.723

Query: Find the recorded z-score belonging to `CCCC[C@H]1C[C@@H]1[C@@H]1N(P(=O)(c2ccccc2)c2ccccc2)C[C@@](O)(c2ccccc2)CC12CC2` and report it.
Response: -0.185

Query: Find the recorded z-score belonging to CS(=O)(=O)CCOC(=O)C1=CC(CCCO)=CC(c2ccc(CN3CCCC3)cc2)N(Cc2cccc(OC(F)(F)F)c2)C=C1C(=O)OCCS(C)(=O)=O (centres undefined) and report it.
Response: 4.56

Query: Find the recorded z-score belonging to `C=C[C@H](C)[C@@H](OC(=O)Nc1ccc(SC)cc1)c1ccc(O)c2ccccc12` and report it.
Response: -0.505

Query: Find the recorded z-score belonging to `CCOC(=O)C[C@H]1[C@H](OC(=O)c2cc3ccccc3oc2=O)[C@@H](NC(=O)CC(C)C)c2cc(OCCCO)ccc2N1C(=O)c1ccccc1` and report it.
Response: 10.4
